- measuredOn: UniProt:P49137
- Sequence (P49137 whole entry): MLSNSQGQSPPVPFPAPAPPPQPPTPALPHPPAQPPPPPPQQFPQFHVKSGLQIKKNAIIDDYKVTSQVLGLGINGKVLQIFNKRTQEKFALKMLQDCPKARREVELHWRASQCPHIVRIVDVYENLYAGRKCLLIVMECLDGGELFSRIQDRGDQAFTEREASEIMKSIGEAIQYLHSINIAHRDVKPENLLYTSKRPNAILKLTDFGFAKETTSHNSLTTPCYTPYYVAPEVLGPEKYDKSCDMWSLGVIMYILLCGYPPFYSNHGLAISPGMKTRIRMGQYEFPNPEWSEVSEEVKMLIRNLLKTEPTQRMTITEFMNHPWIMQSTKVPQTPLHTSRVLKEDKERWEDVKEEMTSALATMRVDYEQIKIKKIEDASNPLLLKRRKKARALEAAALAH
- assayDetails: bMK2 IMAP assay
reportedProperty: IC50

Quick note, IC50 for COc1ncc(-c2ccccc2CN2C(=O)c3oc(-c4ccc(Cl)cc4)cc3Cc3cc(N4CCNCC4)ccc32)cn1 landed at 0.01 to 0.1 µM

Quick note, IC50 for N#Cc1ccc(-c2cc3c(s2)C(=O)Nc2ccc(N4CCNCC4)cc2C3)cc1 landed at 1 to 10 µM

Quick note, IC50 for COc1ccc(-c2ccccc2CN2C(=O)c3oc(-c4ccc(Cl)cc4)cc3Cc3cc(N4CCNCC4)ccc32)cn1 landed at 0.01 to 0.1 µM

Quick note, IC50 for O=C1c2sc(-c3ccc(Cl)cc3)cc2Cc2cc(N3CCNCC3)ccc2N1Cc1ccccn1 landed at 1 to 10 µM

Quick note, IC50 for O=C1Nc2ccc(N3CCNCC3)cc2Cc2cc(-c3ccc(Cl)cc3)sc21 landed at 1 to 10 µM

Quick note, IC50 for COCN1C(=O)c2oc(-c3ccc(C#N)cc3)cc2Cc2cc(N3CCNCC3)ccc21 landed at 0.001 to 0.01 µM

Could you now consider this next compound?
Quick note, IC50 for COc1ccncc1-c1ccccc1CN1C(=O)c2oc(-c3ccc(Cl)cc3)cc2Cc2cc(N3CCNCC3)ccc21 landed at 0.01 to 0.1 µM
